- assayed_system: GlcNAc(b1-3)Gal(b1-4)GlcNAc
- assay_protocol: glycan array binding signal (z-score within array); higher = stronger binding
- assay_setup: glycan notation: IUPAC condensed, linker removed
The entries come from a sample that favours the strongest signals as a whole.

binder	glycan array binding signal (z-score)
Mermaid1 (Stilbonema majum) (protein) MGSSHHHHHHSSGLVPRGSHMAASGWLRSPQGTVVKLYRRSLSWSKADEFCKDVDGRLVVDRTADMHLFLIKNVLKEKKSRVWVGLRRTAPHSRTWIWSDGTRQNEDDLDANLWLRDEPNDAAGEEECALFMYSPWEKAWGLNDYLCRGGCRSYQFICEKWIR	-0.029
OrysaEULS2 (Oryza sativa) (protein) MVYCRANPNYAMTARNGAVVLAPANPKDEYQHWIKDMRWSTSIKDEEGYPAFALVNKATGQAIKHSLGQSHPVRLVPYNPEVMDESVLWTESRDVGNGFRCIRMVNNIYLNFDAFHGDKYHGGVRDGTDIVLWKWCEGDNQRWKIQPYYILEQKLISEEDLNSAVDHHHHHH	-0.186
pilr alpha (protein) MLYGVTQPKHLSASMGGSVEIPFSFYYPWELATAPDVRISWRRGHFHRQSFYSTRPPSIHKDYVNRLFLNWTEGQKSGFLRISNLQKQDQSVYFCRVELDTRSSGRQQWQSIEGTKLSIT	-0.07
AT3G44510(29) (Arabidopsis thaliana), F4J341 (protein) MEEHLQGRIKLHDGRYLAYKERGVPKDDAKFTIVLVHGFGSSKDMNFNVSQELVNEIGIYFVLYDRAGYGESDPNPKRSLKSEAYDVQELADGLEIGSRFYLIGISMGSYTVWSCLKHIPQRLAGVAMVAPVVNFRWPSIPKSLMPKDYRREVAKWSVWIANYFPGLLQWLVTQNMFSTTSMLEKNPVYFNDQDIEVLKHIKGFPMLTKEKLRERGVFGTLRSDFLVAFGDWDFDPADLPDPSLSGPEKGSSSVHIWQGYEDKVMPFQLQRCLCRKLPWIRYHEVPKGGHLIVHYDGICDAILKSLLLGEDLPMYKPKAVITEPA	0.6
Langerin K313I (Homo sapiens), Q9UJ71 (protein) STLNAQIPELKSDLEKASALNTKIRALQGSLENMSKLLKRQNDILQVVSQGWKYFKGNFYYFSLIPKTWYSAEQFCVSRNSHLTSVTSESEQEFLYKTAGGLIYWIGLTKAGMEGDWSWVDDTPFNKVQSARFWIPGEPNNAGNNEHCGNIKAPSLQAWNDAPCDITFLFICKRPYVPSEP	3.17
Tulipa lectin C-1 (Tulipa hybrid) (protein) MGMALVVALAVALASTVAGQQNVLLSGNTLANEESLSYGSVKFIMQNDCNLVLYGGGFQSNTASNGKKCTLTLNNNGHLIINDGLTGRVVWRNSNAQNPVGRYAAVLRPAPGTADVAIYGPAIWSTNDEFSYQESGVVPHKLGRETPNLPRMQNLLFSGQTLYGTDGMLSSNDGSTTFELSKCQLSLSLGNEVKWKVAPTVENGKENYCHVRLDHRGHLSLLNDDNVVLFRSIPTNGVEPPIGDYVLIVEKGAGYIYGPPIWNTYDNRRYKVASA	-0.23
